Target: T1, human CD47 extracellular domain (CD47(ECD)) (human, UniProt Q08722 19-139)
T1 construct: extracellular domain; Bought protein; also called human CD47(ECD); immobilized CD47
T1 sequence (Q08722 19-139 limits assumed): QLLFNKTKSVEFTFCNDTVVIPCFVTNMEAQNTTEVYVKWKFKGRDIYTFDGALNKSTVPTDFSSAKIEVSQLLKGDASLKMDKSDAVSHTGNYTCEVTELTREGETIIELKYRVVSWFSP
Experiment: ELISA, human CD47(ECD) coated on plate
measurement name: EC50 (nM)
Output spec: scalar in nM, unitless text.

binder="humanized anti-CD47 mAb KH2L3 (antibody, V domains shown) VH: QVQLVQSGAEVKKPGASVKVSCKASGYTFTSYWMHWVRQAPGQGLEWIGNIDPSDSETHYAQKFQGRVTLTVDKSTSTVYMELSSLRSEDTAVYYCAGTDLAYWGQGTLVTVSS VL: EIVMTQSPATLSLSPGETAIISCHASQNINVWLSWYQQRPGQAPRLLIYKASNLHTGIPDRFSGSGWGTDFNLSISNLESGDFGVYYCQQGQSYPFTFGQGTKVEIK" value_measured=0.09
binder="humanized anti-CD47 mAb KH1L1 (antibody, V domains shown, Humanized VH of anti-CD47 mAb 17C6A with humanized VL of anti-DLL3 13P9A) VH: QVQLVQSGAEVKKPGSSVKVSCKASGYTFTSYWMHWVRQAPGQGLEWIGNIDPSDSETHYAQKFQGRATLTVDKSTSTAYMELSSLRSEDTAVYYCAGTDLAYWGQGTLVTVSS VL: EIVMTQSPGTLSLSPGERATLSCHASQNINVWLSWYQQKPGQAPRLLIYKASNLHTGIPDRFSGSGSGTDFTLTISRLEPEDFAVYYCQQGQSYPFTFGQGTKVEIK" value_measured=1.17
binder="humanized anti-CD47 mAb KH2L1 (antibody, V domains shown) VH: QVQLVQSGAEVKKPGASVKVSCKASGYTFTSYWMHWVRQAPGQGLEWIGNIDPSDSETHYAQKFQGRVTLTVDKSTSTVYMELSSLRSEDTAVYYCAGTDLAYWGQGTLVTVSS VL: EIVMTQSPGTLSLSPGERATLSCHASQNINVWLSWYQQKPGQAPRLLIYKASNLHTGIPDRFSGSGSGTDFTLTISRLEPEDFAVYYCQQGQSYPFTFGQGTKVEIK" value_measured=0.19

We next turn to a different binder, shown below.
Give the measured EC50 of humanized anti-CD47 mAb KH1L3 (antibody, V domains shown) VH: QVQLVQSGAEVKKPGSSVKVSCKASGYTFTSYWMHWVRQAPGQGLEWIGNIDPSDSETHYAQKFQGRATLTVDKSTSTAYMELSSLRSEDTAVYYCAGTDLAYWGQGTLVTVSS VL: EIVMTQSPATLSLSPGETAIISCHASQNINVWLSWYQQRPGQAPRLLIYKASNLHTGIPDRFSGSGWGTDFNLSISNLESGDFGVYYCQQGQSYPFTFGQGTKVEIK .
0.76
